- tested-on: human TET2 enzyme (Homo sapiens, UniProt Q6N021)
- Construct: purchased BPS Bioscience 50162
- protocol-summary: Cell-free TET2 enzymatic activity assay
- Assay type: biochemical
- condition-set: IC50 TET2 + 40× αKG, αKG 4,500 µM (competitive assay)
pIC50: −log10 of the molar value.
quantity: pIC50

>>> result("O=C(O)CCCC(=O)O [glutarate, glutaric acid]")
"~2.30"

---

- tested-on: human TET2 enzyme (Homo sapiens)
- Construct: purchased BPS Bioscience 50162
- protocol-summary: Cell-free TET2 enzymatic activity assay
- Assay type: biochemical
- condition-set: IC50 recombinant TET2, cell-free
quantity: IC50 (mM)

>>> measured_number("O=C(O)CCCC(=O)O [glutarate, glutaric acid]")
1.5
